FYI, the data here is from the supplement of paper PMC11061612.

Tested on: MDST8 (Colorectal Carcinoma)
protocol text: combination Emax (second highest fraction inhibited in the dose matrix, 72 h); higher = more inhibition; extreme values may be limits of the assay
// label = 1.0 if combination Emax is not less than 0.3, otherwise 0.0

Prompt: Could you verify whether the entry CN(CCO)CC[C@H](CSc1ccccc1)Nc1ccc(S(=O)(=O)NC(=O)c2ccc(N3CCC([C@@H](O)c4ccccc4-c4ccc(Cl)cc4)CC3)cc2)cc1S(=O)(=O)C(F)(F)F [AZD4320] + C[C@@H]1COCCN1C2=NC(=NC(=C2)C3(CC3)[S@](=N)(=O)C)C4=C5C=CNC5=NC=C4 [AZD6738] (first compound max 1 µM, 7x7, partner max 10 µM) shows combination Emax of no less than 0.3?
Response: 1.0

Prompt: Could you verify whether the entry COc1cccc(OCCCN)c1-c1cc(Nc2cnc(C#N)cn2)n[nH]1 [Prexasertib] + O=C(c1cc(Cc2n[nH]c(=O)c3ccccc23)ccc1F)N1CCN(C(=O)C2CC2)CC1 [Olaparib] (first compound max 1 µM, 7x7, partner max 10 µM) shows combination Emax of no less than 0.3?
Response: 1.0

Prompt: Could you verify whether the entry C=CCn1c(=O)c2cnc(Nc3ccc(N4CCN(C)CC4)cc3)nc2n1-c1cccc(C(C)(C)O)n1 [AZD1775] + C1CN(CCC1(C(=O)N[C@@H](CCO)C2=CC=C(C=C2)Cl)N)C3=NC=NC4=C3C=CN4 [Capivasertib] (first compound max 3 µM, partner max 3 µM) shows combination Emax of no less than 0.3?
Response: 1.0

Prompt: Could you verify whether the entry CN(C)CCCOc1ccc(-c2ccc3ncc4c(c3c2)n(C2CCOCC2)c(=O)n4C)cn1 [AZD0156] + CCN(CCO)CCCOc1ccc2c(Nc3cc(CC(=O)Nc4cccc(F)c4)[nH]n3)ncnc2c1 [AZD2811] (first compound max 1 µM, 7x7, partner max 1 µM) shows combination Emax of no less than 0.3?
Response: 0.0

Prompt: Could you verify whether the entry Cc1cc2ncnn2cc1Nc1ncc2c(n1)n(C1CCOCC1)c(=O)n2C [AZD7648] + O=C(c1cc(Cc2n[nH]c(=O)c3ccccc23)ccc1F)N1CCN(C(=O)C2CC2)CC1 [Olaparib] (first compound max 10 µM, 7x7, partner max 10 µM) shows combination Emax of no less than 0.3?
Response: 0.0

Prompt: Could you verify whether the entry NC1(C(=O)N[C@@H](CCO)c2ccc(Cl)cc2)CCN(c2ncnc3[nH]ccc23)CC1 [Capivasertib] + CCN(CCO)CCCOc1ccc2c(Nc3cc(CC(=O)Nc4cccc(F)c4)[nH]n3)ncnc2c1 [AZD2811] (first compound max 10 µM, 7x7, partner max 1 µM) shows combination Emax of no less than 0.3?
Response: 1.0

Prompt: Could you verify whether the entry C[C@@H](c1ccc2nccn2c1)n1nnc2ncc(-c3cnn(C)c3)nc21 [Savolitinib] + CC1(C)CCC(CN2CCN(c3ccc(C(=O)NS(=O)(=O)c4ccc(NCC5CCOCC5)c([N+](=O)[O-])c4)c(Oc4cnc5[nH]ccc5c4)c3)CC2)=C(c2ccc(Cl)cc2)C1 [Venetoclax] (first compound max 1 µM, 7x7, partner max 1 µM) shows combination Emax of no less than 0.3?
Response: 0.0

====

Test system: CAPAN-2 (Pancreatic Carcinoma)
protocol text: combination Emax (second highest fraction inhibited in the dose matrix, 72 h); higher = more inhibition; extreme values may be limits of the assay
readout name: combination Emax
One number for each entry.

Check out these entries, answers already filled in.
Prompt: Endpoint output: combination Emax of COc1cccc(OCCCN)c1-c1cc(Nc2cnc(C#N)cn2)n[nH]1 [Prexasertib] + CCc1c2c(nc3ccc(O)cc13)-c1cc3c(c(=O)n1C2)COC(=O)[C@]3(O)CC [SN-38] (first compound max 1 µM, 7x7, partner max 0.3 µM) . Value?
Response: 0.495

Prompt: Endpoint output: combination Emax of CC1(C)CCC(CN2CCN(c3ccc(C(=O)NS(=O)(=O)c4ccc(NCC5CCOCC5)c([N+](=O)[O-])c4)c(Oc4cnc5[nH]ccc5c4)c3)CC2)=C(c2ccc(Cl)cc2)C1 [Venetoclax] + C=CCn1c(=O)c2cnc(Nc3ccc(N4CCN(C)CC4)cc3)nc2n1-c1cccc(C(C)(C)O)n1 [AZD1775] (first compound max 1 µM, partner max 1 µM) . Value?
Response: 0.453

# evaluate next
Prompt: Endpoint output: combination Emax of CC1(C)CCC(CN2CCN(c3ccc(C(=O)NS(=O)(=O)c4ccc(NCC5CCOCC5)c([N+](=O)[O-])c4)c(Oc4cnc5[nH]ccc5c4)c3)CC2)=C(c2ccc(Cl)cc2)C1 [Venetoclax] + Cn1cnc2c(F)c(Nc3ccc(Br)cc3Cl)c(C(=O)NOCCO)cc21 [Selumetinib] (first compound max 1 µM, 7x7, partner max 3 µM) . Value?
Response: 0.364

====

System: ECC10 (Gastric Carcinoma)
protocol text: combination Emax (second highest fraction inhibited in the dose matrix, 72 h); higher = more inhibition; extreme values may be limits of the assay
readout name: combination Emax
Numbers only.

Prompt: Endpoint output: combination Emax of CS(=O)(=O)CCNCc1ccc(-c2ccc3ncnc(Nc4ccc(OCc5cccc(F)c5)c(Cl)c4)c3c2)o1 [Lapatinib] + C[C@@H](Oc1cc(-c2cnn(C3CCNCC3)c2)cnc1N)c1c(Cl)ccc(F)c1Cl [Crizotinib] (first compound max 10 µM, 7x7, partner max 10 µM) . Value?
Response: 0.97

Prompt: Endpoint output: combination Emax of CS(=O)(=O)CCNCc1ccc(-c2ccc3ncnc(Nc4ccc(OCc5cccc(F)c5)c(Cl)c4)c3c2)o1 [Lapatinib] + Cn1cnc2c(F)c(Nc3ccc(Br)cc3Cl)c(C(=O)NOCCO)cc21 [Selumetinib] (first compound max 10 µM, 7x7, partner max 10 µM) . Value?
Response: 0.951

Prompt: Endpoint output: combination Emax of CN(CCO)CC[C@H](CSc1ccccc1)Nc1ccc(S(=O)(=O)NC(=O)c2ccc(N3CCC([C@@H](O)c4ccccc4-c4ccc(Cl)cc4)CC3)cc2)cc1S(=O)(=O)C(F)(F)F [AZD4320] + CC(=O)O[C@H]1C(=O)[C@@]2(C)[C@H]([C@H](OC(=O)c3ccccc3)[C@]3(O)C[C@H](OC(=O)[C@H](O)[C@@H](NC(=O)c4ccccc4)c4ccccc4)C(C)=C1C3(C)C)[C@]1(OC(C)=O)CO[C@@H]1C[C@@H]2O [Paclitaxel] (first compound max 1 µM, 7x7, partner max 3 µM) . Value?
Response: 1

Count: 2. Required value per item: combination Emax.
1. NC1(C(=O)N[C@@H](CCO)c2ccc(Cl)cc2)CCN(c2ncnc3[nH]ccc23)CC1 [Capivasertib] + COc1nnc2ccc(N3CCC(c4ccc(OCCN5CCN(C)C(=O)[C@H]5C)cc4)CC3)nn12 [AZD5153] (first compound max 10 µM, 7x7, partner max 1 µM)
2. CC(=O)c1c(C)c2cnc(Nc3ccc(N4CCNCC4)cn3)nc2n(C2CCCC2)c1=O [Palbociclib] + Cn1cnc2c(F)c(Nc3ccc(Br)cc3Cl)c(C(=O)NOCCO)cc21 [Selumetinib] (first compound max 10 µM, 7x7, partner max 10 µM)

Response:
1. 0.981
2. 0.539

Prompt: Endpoint output: combination Emax of Cc1c2c(nn1C)CSCc1cc(n(C)n1)CSc1cc(c3ccccc3c1)OCCCc1c(C(=O)O)n(C)c3c-2c(Cl)ccc13 [AZD5991] + CC1(C)CCC(CN2CCN(c3ccc(C(=O)NS(=O)(=O)c4ccc(NCC5CCOCC5)c([N+](=O)[O-])c4)c(Oc4cnc5[nH]ccc5c4)c3)CC2)=C(c2ccc(Cl)cc2)C1 [Venetoclax] (first compound max 1 µM, 7x7, partner max 1 µM) . Value?
Response: 1

====

Kindly state Bliss excess for each of the entries shown.
System: CAL-29 (Bladder Carcinoma);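 further: after 72 h of two-drug dosing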
protocol text: Bliss excess, mean over the matrix (fraction); higher = more synergy
Numbers only.

Check out these entries, answers already filled in.
Prompt: Endpoint output: Bliss excess of CN(CCO)CC[C@H](CSc1ccccc1)Nc1ccc(S(=O)(=O)NC(=O)c2ccc(N3CCC([C@@H](O)c4ccccc4-c4ccc(Cl)cc4)CC3)cc2)cc1S(=O)(=O)C(F)(F)F [AZD4320] + C1CN(CCC1(C(=O)N[C@@H](CCO)C2=CC=C(C=C2)Cl)N)C3=NC=NC4=C3C=CN4 [Capivasertib] (first compound max 1 µM, 7x7, partner max 3 µM) . Value?
Response: -0.0397

Prompt: Endpoint output: Bliss excess of Cc1c2c(nn1C)CSCc1cc(n(C)n1)CSc1cc(c3ccccc3c1)OCCCc1c(C(=O)O)n(C)c3c-2c(Cl)ccc13 [AZD5991] + Cc1cc2ncnn2cc1Nc1ncc2c(n1)n(C1CCOCC1)c(=O)n2C [AZD7648] (first compound max 1 µM, 7x7, partner max 10 µM) . Value?
Response: 0.014

# evaluate next
Prompt: Endpoint output: Bliss excess of CN(CCO)CC[C@H](CSc1ccccc1)Nc1ccc(S(=O)(=O)NC(=O)c2ccc(N3CCC([C@@H](O)c4ccccc4-c4ccc(Cl)cc4)CC3)cc2)cc1S(=O)(=O)C(F)(F)F [AZD4320] + CN(C)CCCOc1ccc(-c2ccc3ncc4c(c3c2)n(C2CCOCC2)c(=O)n4C)cn1 [AZD0156] (first compound max 1 µM, 7x7, partner max 1 µM) . Value?
Response: -0.0187
